- Assay Remarks: 50 % lethal dose by intravenous injection to mice
- Particulars: mouse, in vivo
- Description: Further, the toxicity of the benzylalcohol derivative (I) of the present invention is remarkably low.
Measurement Label: LD50

Exercise: Value lookup for LD50; key = COc1ccc(CCNCC(O)c2ccc(O)cc2)cc1OC (stereo not shown)
Key: ~198 mg/kg
